subject_of_test: MASP-2 CCP2-SP (Homo sapiens (Human))
Sequence (O00187 445-686): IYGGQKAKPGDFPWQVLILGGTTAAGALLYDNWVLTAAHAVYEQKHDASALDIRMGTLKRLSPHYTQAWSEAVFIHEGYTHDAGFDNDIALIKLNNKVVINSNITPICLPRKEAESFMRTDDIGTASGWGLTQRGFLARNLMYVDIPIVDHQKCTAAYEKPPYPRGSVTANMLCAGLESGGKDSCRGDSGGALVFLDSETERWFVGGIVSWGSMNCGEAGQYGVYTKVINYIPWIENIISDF
Sequence (O00187 364-432 partner): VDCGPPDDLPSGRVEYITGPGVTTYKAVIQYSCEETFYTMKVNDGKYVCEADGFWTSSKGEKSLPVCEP
run_description: MASP-2 co-crystallization, X-ray crystallography and structure analysis (H-bonds, van der Waals contacts)
measurement_parameters: Table A2-3
Counter-ions that a name gives are not always drawn.
I'd be grateful if you could share measured van der Waals contact distance, MASP-2 PHE 529 atom CZ for these entries.
When you answer, write just the number.

# compound C[C@H](NC(=O)[C@H]1C[C@@H](c2ccccc2)CCN1)C(=O)NCc1ccc(N)nc1 (stereo in doubt) ; its van der Waals contact distance, MASP-2 PHE 529 atom CZ = 3.88

# compound C[C@H](NC(=O)[C@H]1C[C@H](Cc2ccccc2)CN1)C(=O)NCc1ccc(C(=N)N)cc1 ; its van der Waals contact distance, MASP-2 PHE 529 atom CZ = 3.63

# compound Cc1cc(Cl)cc(CNC(=O)[C@H](C)NC(=O)[C@H]2C[C@H](Cc3ccccc3)CN2)c1O ; its van der Waals contact distance, MASP-2 PHE 529 atom CZ = 3.86

# compound CC(=O)Nc1ccc(CCN[C@H](CCc2ccccc2)C(=O)N[C@@H](C)C(=O)NCc2ccc(N)nc2C)cc1 [compound 1368, Dihydrochloride] ; its van der Waals contact distance, MASP-2 PHE 529 atom CZ = 3.71

# compound C[C@H](NC(=O)[C@H](N)CCc1ccccc1)C(=O)NCc1ccc(N)nc1 ; its van der Waals contact distance, MASP-2 PHE 529 atom CZ = 3.82

# compound CC(=O)Nc1ccc(CCN[C@H](CCc2ccccc2)C(=O)N[C@@H](C)C(=O)NCc2ccc(C(=N)N)cc2)cc1 ; its van der Waals contact distance, MASP-2 PHE 529 atom CZ = 3.88

# compound C[C@H](NC(=O)[C@H](N)CCCc1ccccc1)C(=O)NCc1ccc(C(=N)N)cc1 ; its van der Waals contact distance, MASP-2 PHE 529 atom CZ = 3.57

# compound N=C(N)c1ccc(CNC(=O)C(CF)NC(=O)[C@H](N)CCc2ccccc2)cc1 (some centres unmarked) [compound 1050, Dihydrochloride] ; its van der Waals contact distance, MASP-2 PHE 529 atom CZ = 3.88
